# Target entity: human amylin AMY1 receptor (hCTR + hRAMP1) (human, UniProt P30988 25-474)
# Sequence (P30988 25-474, chain 1 of 2): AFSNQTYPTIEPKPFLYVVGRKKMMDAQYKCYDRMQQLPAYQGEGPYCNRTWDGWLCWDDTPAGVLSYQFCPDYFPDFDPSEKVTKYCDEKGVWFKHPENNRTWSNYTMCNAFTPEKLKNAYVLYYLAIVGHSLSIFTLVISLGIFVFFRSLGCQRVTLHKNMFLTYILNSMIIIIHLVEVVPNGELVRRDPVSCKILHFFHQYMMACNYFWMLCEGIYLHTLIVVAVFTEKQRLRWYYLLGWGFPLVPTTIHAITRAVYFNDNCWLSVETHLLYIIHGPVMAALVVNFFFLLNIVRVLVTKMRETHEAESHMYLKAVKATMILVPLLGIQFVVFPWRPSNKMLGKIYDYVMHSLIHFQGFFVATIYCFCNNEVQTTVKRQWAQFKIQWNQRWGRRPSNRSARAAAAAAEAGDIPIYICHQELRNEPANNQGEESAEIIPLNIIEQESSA
# Sequence (chain, as listed by the source, chain 2 of 2): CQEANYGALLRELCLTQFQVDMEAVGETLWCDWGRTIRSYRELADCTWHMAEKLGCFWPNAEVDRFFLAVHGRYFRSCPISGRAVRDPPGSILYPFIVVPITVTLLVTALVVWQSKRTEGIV
# Assay: cell-based or functional assay
Exercise: for every item that follows, state its recorded cAMP assay IC50.

// known answers, use as guide
Binder: 12E8 (antibody, human IgG2, kappa, V domains shown, also called 12E8.2) VH: QVQLVESGGGVVQPGRSLRLSCAASGFTFSSYGMHWVRQAPGKGLEWVAVISYDGSHESYADSVKGRFTISRDISKNTLYLQMNSLRAEDTAVYFCARERKRVTMSTLYYYFYYGMDVWGQGTTVTVSS VL: DITLTQTPLSLSVSPGQPASISCKSSQSLLHSDGRNYLYWYLQKPGQPPQLLIYEVSNRFSGLPDRFSGSGSGTDFTLKISRVEAEDVGIYYCMQSFPLPLTFGGGTKVEIKR
cAMP assay IC50: > 1000 nM
//
Binder: 9D4 (antibody, human IgG2, lambda, V domains shown, also called 09D4; 09D4.2) VH: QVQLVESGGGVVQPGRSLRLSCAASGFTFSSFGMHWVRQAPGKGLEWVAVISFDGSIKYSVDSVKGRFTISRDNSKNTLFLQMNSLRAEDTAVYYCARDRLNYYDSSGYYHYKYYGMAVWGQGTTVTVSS VL: QSVLTQPPSVSAAPGQKVTISCSGSSSNIGNNYVSWYQQFPGTAPKLLIYDNNKRPSGIPDRFSGSKSGTSATLGITGLQTGDEADYYCGTWDSRLSAVVFGGGTKLTVLG
cAMP assay IC50: > 1000 nM

Next binder, please.
q: State its cAMP assay IC50 for this binder: 4E4 (antibody, human IgG2, lambda, V domains shown, also called 04E4; 04E4.2) VH: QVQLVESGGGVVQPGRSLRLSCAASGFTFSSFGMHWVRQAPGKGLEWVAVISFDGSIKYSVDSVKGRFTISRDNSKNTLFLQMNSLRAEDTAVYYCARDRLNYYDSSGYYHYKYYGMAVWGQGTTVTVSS VL: QSVLTQPPSVSAAPGQKVTISCSGSSSNIGNNYVSWYQQLPGTAPKLLIYDNNKRPSGIPDRFSGSKSGTSTTLGITGLQTGDEADYYCGTWDSRLSAVVFGGGTKLTVLG
a: > 1000 nM
